# test.system: T1, human KIX domain of CBP (residues 587-673) with 36 extra N-terminal residues (human, UniProt Q92793 587-673, RED-tris-NTA dye bound non-covalently to the His tag)
# T1 construct: synthetic codon-optimised gene in pET100/TOPO; construct 14.5 kDa; no cleavage is described; also called His-tagged KIX domain; source: E. coli BL21 DE3, purified (Histrap HP, Resource Q, Superdex 75); not shown: His6, N-terminal, kept
# T1 sequence (Q92793 587-673): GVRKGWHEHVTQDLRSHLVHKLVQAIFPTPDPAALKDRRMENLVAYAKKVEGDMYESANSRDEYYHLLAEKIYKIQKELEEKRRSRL
# measurement.notes: MST; as a1, KBM peptide binding to labelled KIX in the presence of the 9aaTAD peptide (its concentration not told)
# conditions: both partners purified

>  <binder>
EEEYRALLEE (source: synthetic peptide, bought: GenScript) [DUX4 KBM peptide for binding analysis]

>  <Kd>
~1100 nM

$$$$
